- MEASURED_ON: MRGPRX2 (Homo sapiens, UniProt Q96LB1)
- EXPERIMENT: MRGPRX2 FLIPR calcium mobilization assay
- Type: cell-based
- Set-up: host or cells: CHO-K1
- TEST_CONTEXT: CHO-K1 cells, agonist Cortistatin-14 at EC80, Ca2+ release
pIC50: −log10 of the molar value.
MEASURED_METRIC: pIC50

- COMPOUND: "CC(CNc1cc(C(F)(F)F)nc2cc(C(F)(F)F)nn12)(c1ccc(F)cc1)C1CNC1 (racemic)"
  MEASURED_METRIC: "pIC50"
  RESULT: "7.00 to 10.00"

Pending compound:
## Input Entry under review: CC(CNc1cc(C(F)(F)F)nc2cc(C(F)(F)F)nn12)(c1ccc(F)cc1)C1CN(/C(N)=N/C#N)C1 (racemic) . Reported pIC50?
## Output 7.00 to 10.00

====

IC50 values for the compounds below.
- MEASURED_ON: MRGPRX2 (Homo sapiens)
- Sequence (Q96LB1 1-330): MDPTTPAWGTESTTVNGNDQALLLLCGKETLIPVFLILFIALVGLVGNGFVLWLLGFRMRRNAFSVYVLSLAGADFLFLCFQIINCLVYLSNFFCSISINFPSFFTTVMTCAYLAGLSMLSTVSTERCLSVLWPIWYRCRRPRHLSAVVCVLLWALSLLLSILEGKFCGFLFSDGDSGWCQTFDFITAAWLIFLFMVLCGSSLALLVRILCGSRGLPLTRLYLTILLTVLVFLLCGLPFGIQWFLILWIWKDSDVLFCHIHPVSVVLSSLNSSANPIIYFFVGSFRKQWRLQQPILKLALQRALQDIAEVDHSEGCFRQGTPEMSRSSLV
- EXPERIMENT: MRGPRX2 β-Arrestin recruitment assay (PathHunter CHO-K1)
- Format: cell-based
- Design: host or cells: PathHunter CHO-K1
- TEST_CONTEXT: PathHunter CHO-K1 cells, agonist Cortistatin 14 0.25 μM

Here's what some known entries look like.
- COMPOUND: "NC(=O)N1CCC(C(CO)(CNc2cc(C(F)(F)F)nc3cc(C(F)(F)F)nn23)c2ccc(F)cc2)C1 (single isomer, unassigned) [Example 19]"
  IC50: "0.1 to 100 nM"
- COMPOUND: "NC(=O)N1CCC(C(CNc2cc(C(F)(F)F)nc3cc(C(F)(F)F)nn23)c2ccc(F)cc2)CC1 (racemic) [Example 15]"
  IC50: "0.1 to 100 nM"
- COMPOUND: "Cn1cc(NC2CN(C(CNc3cc(C(F)(F)F)nc4cc(C(F)(F)F)nn34)c3ccc(F)cc3)C2)nn1 (racemic) [Example 27]"
  IC50: "0.1 to 100 nM"

## Input Entry under review: O=C1CCC2(CN(C(CNc3cc(C(F)(F)F)nc4cc(C(F)(F)F)nn34)c3ccc(F)cc3)C2)N1 (racemic) [Example 32] . Reported IC50?
## Output 0.1 to 100 nM

## Input Entry under review: CC(CNc1cc(C(F)(F)F)nc2cc(C(F)(F)F)nn12)(c1ccc(F)cc1)C1CCN(C(N)=O)C1 (single isomer, unassigned) [Example 3] . Reported IC50?
## Output 0.1 to 100 nM

====

- MEASURED_ON: MRGPRX2 (Homo sapiens, UniProt Q96LB1)
- EXPERIMENT: MRGPRX2 β-Arrestin recruitment assay (PathHunter CHO-K1)
- Type: cell-based
- Parameters: host or cells: PathHunter CHO-K1
- TEST_CONTEXT: PathHunter CHO-K1 cells, agonist Cortistatin 14 0.25 μM
MEASURED_METRIC: IC50

## Input Entry under review: CC(CNc1cc(C(F)(F)F)nc2cc(C(F)(F)F)nn12)(c1ccccc1)C1CN(C(N)=O)C1 (racemic) [Example 10] . Reported IC50?
## Output 0.1 to 100 nM

## Input Entry under review: OC1CC2CC1CN2C(CNc1cc(C(F)(F)F)nc2cc(C(F)(F)F)nn12)c1ccc(F)cc1 (stereo not drawn) [Example 22] . Reported IC50?
## Output 0.1 to 100 nM

## Input Entry under review: [2H]C([2H])([2H])NC(=O)C1CN(C(CNc2cc(C(F)(F)F)nc3cc(C(F)(F)F)nn23)c2ccc(F)cc2)C1 (single isomer, unassigned) [Example 26] . Reported IC50?
## Output 0.1 to 100 nM

====

- MEASURED_ON: MRGPRX2 (Homo sapiens, UniProt Q96LB1)
- EXPERIMENT: MRGPRX2 β-Arrestin recruitment assay (PathHunter CHO-K1)
- Type: cell-based
- Set-up: host or cells: PathHunter CHO-K1
- TEST_CONTEXT: PathHunter CHO-K1 cells, agonist Cortistatin 14 0.25 μM
MEASURED_METRIC: IC50

- MOLECULE: "CC(CNc1cc(C(F)(F)F)nc2cc(C(F)(F)F)nn12)(c1ccc(F)cc1)C1CNC1 (racemic) [Example 13]"
  MEASURED_ON: "MRGPRX2 (Homo sapiens, UniProt Q96LB1)"
  IC50: "0.1 to 100 nM"
- MOLECULE: "O=C(NCC(F)(F)F)N1CC2(C1)CN(C(CNc1cc(C(F)(F)F)nc3cc(C(F)(F)F)nn13)c1ccc(F)cc1)C2 (racemic) [Example 41]"
  MEASURED_ON: "MRGPRX2 (Homo sapiens, UniProt Q96LB1)"
  IC50: "0.1 to 100 nM"

## Input Entry under review: O=C1NC2(CCO1)CN(C(CNc1cc(C(F)(F)F)nc3cc(C(F)(F)F)nn13)c1ccc(F)cc1)C2 (single isomer, unassigned) [Example 25] . Reported IC50?
## Output 0.1 to 100 nM
